- target: 5HT4 (Rattus norvegicus, UniProt Q62758)
- Construct: 5HT4 Antagonism in Rat Oesophageal Tunica Muscularis Mucosae; from tissue; host or cells: rat oesophageal tunica muscularis mucosae
- Sequence (Q62758 whole entry): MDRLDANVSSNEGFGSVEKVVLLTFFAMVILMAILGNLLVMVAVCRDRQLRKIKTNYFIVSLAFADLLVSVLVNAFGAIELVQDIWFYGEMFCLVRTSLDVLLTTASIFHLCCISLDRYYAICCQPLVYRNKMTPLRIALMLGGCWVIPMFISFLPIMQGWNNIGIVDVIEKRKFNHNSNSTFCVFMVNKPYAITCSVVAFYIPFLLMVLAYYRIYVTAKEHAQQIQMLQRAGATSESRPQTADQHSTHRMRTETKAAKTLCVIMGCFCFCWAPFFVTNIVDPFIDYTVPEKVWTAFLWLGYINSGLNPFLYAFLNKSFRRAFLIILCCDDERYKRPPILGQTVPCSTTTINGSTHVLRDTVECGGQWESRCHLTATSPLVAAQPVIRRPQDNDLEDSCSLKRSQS
- protocol: 5HT4 antagonism in rat oesophageal tunica muscularis mucosae
- Type: cell-based
- applied.conditions: 5HT4 antagonistic data; isolated rat oesophageal tunica muscularis mucosae, method of Baxter et al.
measured.attribute: pA2
Provide a numeric answer; units are not to be included.

IN: Look up pA2 of O=C(NCC1CCN(CCCO)CC1O)c1cc(Cl)cc2c1OCCC2 (centres unmarked) and report it.
OUT: 9.81

IN: Complete the entry with pA2 for O=C(NCC1CCN(Cc2ccccc2)CC1O)c1cc(Cl)cc2c1OCCC2 (centres unmarked)
OUT: 9.7

IN: Provide measured pA2 value, entry: O=C(NCC1CCN(CCOCCO)CC1O)c1cc(Cl)cc2c1OCCC2.O=C(O)C(=O)O (centres unmarked)
OUT: 9.5

IN: Given the compound O=C(NCC1CCN(Cc2ccccc2)CC1O)c1cc(Cl)cc2c1OCC2 (centres unmarked) [Compound 12] , write its reported pA2.
OUT: 10.2

IN: Assign pA2 to the following record: N#CCCCN1CCC(CNC(=O)c2cc(Cl)cc3c2OCCCO3)C(O)C1 (centres unmarked)
OUT: 9.78

====

pA2 for assorted molecules
- target: 5HT4 (Rattus norvegicus)
- Construct: 5HT4 Antagonism in Rat Oesophageal Tunica Muscularis Mucosae; from tissue; host or cells: rat oesophageal tunica muscularis mucosae
- protocol: 5HT4 antagonism in rat oesophageal tunica muscularis mucosae
- Format: cell-based
- applied.conditions: 5HT4 antagonistic data; isolated rat oesophageal tunica muscularis mucosae, method of Baxter et al.
Simply state the number, no unit and no words.

Record excerpt, results attached:
[[record]]
molecule = "O=C(NCC1CCN(CCCOc2ccc(F)cc2)CC1O)c1cc(Cl)cc2c1OCCC2 (stereo not shown)"
observed_value = 9.8

[[record]]
molecule = "CS(=O)(=O)NCCN1CCC(CNC(=O)c2cc(Cl)cc3c2OCC3)C(O)C1 (stereo not shown)"
observed_value = 9.6


Pending molecule:
IN: Report pA2, nothing else, for this molecule: CCCCN1CCC(CNC(=O)c2cc(Cl)cc3c2OCCO3)C(O)C1.O=C(O)C(=O)O (stereo not shown)
OUT: 9.49

====

- target: 5HT4 (Rattus norvegicus)
- Construct: 5HT4 Antagonism in Rat Oesophageal Tunica Muscularis Mucosae; from tissue; host or cells: rat oesophageal tunica muscularis mucosae
- protocol: 5HT4 antagonism in rat oesophageal tunica muscularis mucosae
- Type: cell-based
- applied.conditions: 5HT4 antagonistic data; isolated rat oesophageal tunica muscularis mucosae, method of Baxter et al.
measured.attribute: pA2

[[record]]
compound = "O=C(NCC1(O)CCN(CCOCCO)CC1)c1cc(Cl)cc2c1OCCO2.O=C(O)/C=C\\C(=O)O"
target = "5HT4 (Rattus norvegicus)"
observed_value = "<8"

[[record]]
compound = "CC(=O)CCCN1CCC(O)(CNC(=O)c2cc(Cl)cc3c2OCCCO3)CC1.O"
target = "5HT4 (Rattus norvegicus)"
observed_value = "˜7.5"

[[record]]
compound = "COC1CN(Cc2ccccc2)CCC1CNC(=O)c1cc(Cl)cc2c1OCCO2 (stereo not drawn)"
target = "5HT4 (Rattus norvegicus)"
observed_value = "<8"


====

- target: 5HT4 (Rattus norvegicus, UniProt Q62758)
- Construct: 5HT4 Antagonism in Rat Oesophageal Tunica Muscularis Mucosae; from tissue; host or cells: rat oesophageal tunica muscularis mucosae
- protocol: 5HT4 antagonism in rat oesophageal tunica muscularis mucosae
- Type: cell-based
- applied.conditions: 5HT4 antagonistic data; isolated rat oesophageal tunica muscularis mucosae, method of Baxter et al.
measured.attribute: pA2

[[record]]
given_smiles = "N#CCCCN1CCC(O)(CNC(=O)c2cc(Cl)cc3c2OCCCO3)CC1.O=C(O)C(=O)O"
target = "5HT4 (Rattus norvegicus, UniProt Q62758)"
observed_value = "<8"

[[record]]
given_smiles = "COCCCN1CCC(O)(CNC(=O)c2cc(Cl)cc3c2OCCCO3)CC1.O=C(O)C(=O)O"
target = "5HT4 (Rattus norvegicus, UniProt Q62758)"
observed_value = "<8"

[[record]]
given_smiles = "CC(C)n1ccn(CCN2CCC(O)(CNC(=O)c3cc(Cl)cc4c3OCCO4)CC2)c1=O.O=C(O)C(=O)O"
target = "5HT4 (Rattus norvegicus, UniProt Q62758)"
observed_value = "˜8"


====

- target: 5HT4 (Rattus norvegicus)
- Construct: 5HT4 Antagonism in Rat Oesophageal Tunica Muscularis Mucosae; from tissue; host or cells: rat oesophageal tunica muscularis mucosae
- protocol: 5HT4 antagonism in rat oesophageal tunica muscularis mucosae
- Format: cell-based
- applied.conditions: 5HT4 antagonistic data; isolated rat oesophageal tunica muscularis mucosae, method of Baxter et al.
- Description: 5HT4 Antagonism in Rat Oesophageal Tunica Muscularis Mucosae The 5HT4 antagonistic potence of the present compounds was measured as described in Baxter G. S. et. al, Naunyn-Schmiedeberg's Arch. Pharmacol., 343, 439-446 ([…]). The pA2 value is calculated as follows: [formula]
measured.attribute: pA2

[[record]]
molecule = "CS(=O)(=O)CCCN1CCC(O)(CNC(=O)c2cc(Cl)cc3c2OCCO3)CC1"
observed_value = "<8"

[[record]]
molecule = "CCCCN1CCC(O)(CNC(=O)c2cc(Cl)cc3c2OCCO3)CC1.Cl"
observed_value = "<8"


Proceed to the following item.
IN: For 5HT4 (Rattus norvegicus), give the measured pA2 of the entry COCCCN1CCC(CNC(=O)c2cc(Cl)cc3c2OCCCO3)C(OC)C1.O=C(O)C(=O)O (stereo not drawn)
OUT: >8

====

- target: 5HT4 (Rattus norvegicus)
- Construct: 5HT4 Antagonism in Rat Oesophageal Tunica Muscularis Mucosae; from tissue; host or cells: rat oesophageal tunica muscularis mucosae
- protocol: 5HT4 antagonism in rat oesophageal tunica muscularis mucosae
- Assay type: cell-based
- applied.conditions: 5HT4 antagonistic data; isolated rat oesophageal tunica muscularis mucosae, method of Baxter et al.
measured.attribute: pA2
Just the number.

[[record]]
compound = "COC1CN(CCCC(C)=O)CCC1CNC(=O)c1cc(Cl)cc2c1OCCCO2.O=C(O)C(=O)O (stereo not drawn) [Compound 139]"
target = "5HT4 (Rattus norvegicus)"
measured_attribute = "pA2"
observed_value = 8.6

[[record]]
compound = "CCCCN1CCC(CNC(=O)c2cc(Cl)cc3c2OCCCO3)C(OC)C1.O=C(O)C(=O)O (stereo not drawn) [Compound 130]"
target = "5HT4 (Rattus norvegicus)"
measured_attribute = "pA2"
observed_value = 8.5

[[record]]
compound = "CCCCN1CCC(CNC(=O)c2cc(Cl)cc3c2OCCCO3)C(OC)C1.O=C(O)C(=O)O (stereo not drawn) [Compound 131]"
target = "5HT4 (Rattus norvegicus)"
measured_attribute = "pA2"
observed_value = 9.5


IN: Query pA2 for O=C(NCC1CCN(Cc2ccccc2)CC1O)c1cc(Cl)cc2c1OCCO2 (stereo not drawn)
OUT: 9.19

IN: State its pA2 for this compound: COC1CN(Cc2ccccc2)CCC1CNC(=O)c1cc(Cl)cc2c1OCCCO2 (stereo not drawn)
OUT: 8.5

IN: Entry Cl.O=C(O)CCCN1CCC(CNC(=O)c2cc(Cl)cc3c2OCCO3)C(O)C1 (stereo not drawn) needs its pA2 filled in; supply it.
OUT: 9.24

IN: Quick one: give measured pA2 for N#CCCCN1CCC(CNC(=O)c2cc(Cl)cc3c2OCCCCO3)C(O)C1.O=C(O)C(=O)O (stereo not drawn)
OUT: 10.5

IN: Provide only the value of recorded pA2 for CCCCN1CCC(CNC(=O)c2cc(Cl)cc3c2OCCCCO3)C(O)C1.O (stereo not drawn)
OUT: 9.4
